Experiment: sensitizers of A549 cells to miR-34 induction, primary screen, imaging, A549 dox-inducible miR-34, nuclei and caspase counts (AID 1347080)
Conditions: A549 miR-34 inducible, Hoechst nuclei count, 48 h; measured here: total cells with miR-34 induction; stronger effect = lower value
Catalogue of cell count values
Simply state the number, no unit and no words.

[
  {
    "molecule": "Cc1ccc(-n2nccn2)c(C(=O)N2CCN(c3nc4cc(Cl)ccc4o3)CCC2C)c1 (stereo unspecified)",
    "cell count": 6970
  }
]

Query: May I ask what cell count has been recorded for CCCCCCC(=O)O[C@H]1CC[C@H]2[C@@H]3CC(=O)C4=CC(=O)CC[C@]4(C)[C@H]3CC[C@]12C ?
Result: 5250

Query: I'd like to know its cell count. The molecule in question is CC[N+](CC)(CCCNC1=CC(=O)C(NCCC[N+](CC)(CC)Cc2ccccc2)=CC1=O)Cc1ccccc1
Result: 8950

Query: What does the record list as cell count for CC(C)(Cc1c[nH]c2ccc(Cl)cc12)NCCOc1ccccc1OCC1CC1 ?
Result: 226

###

Test: MDA-MB-436 breast carcinoma cell growth inhibition, synergistic combos for chromothripsis tumors, BGB or cisplatin combos (AID 1671458);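 note: cells exposed for 96 hours; 0% = vehicle DMSO and 100% = killing by high DMSO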
Settings: MDA-MB-436 breast carcinoma growth inhibition, drug combinations; at 0.5 µM; stronger effect = higher value
Threshold rule: inhibition greater than or equal to -10% is true; below that, false.

Please review the following examples before continuing.
[
  {
    "molecule": "CN(C)NC(=O)CCC(=O)O",
    "discrete_label": "false"
  },
  {
    "molecule": "COc1cc(C2c3cc4c(cc3C(O)C3COC(=O)C23)OCO4)cc(OC)c1OC (stereo not drawn)",
    "discrete_label": "true"
  },
  {
    "molecule": "CC1(C)C(C(=O)Nc2ccc(S(=O)(=O)c3ccc(NC(=O)C4C(C)(C)C4(C)C)cc3)cc2)C1(C)C",
    "discrete_label": "false"
  }
]

Query: Decide: is the reported value of inhibition for Cn1c(COP(=O)(NCCBr)NCCBr)cnc1[N+](=O)[O-] equal to or greater than -10%?
Result: false

Query: Identify whether the reported inhibition of the following molecule is -10% or greater: O=c1[nH]c(=O)n(C2OC(CO)C(O)C2O)cc1F (stereo not drawn)
Result: true

Query: Say whether O=C1CCC[C@@H]2[C@H]3CCCN4CCC[C@@H](CN12)[C@@H]34 shows inhibition of -10% or more.
Result: true

Query: Decide: is the reported value of inhibition for O=P(O)(NCCCl)NCCCl equal to or greater than -10%?
Result: false

Query: Item O=C(O)CCCc1ccc(N(CCCl)CCCl)cc1 with inhibition of -10% or above?
Result: false

###

Assay: inhibitors of Cryptococcus chitosan production, flow cytometry, Cibacron Brilliant Red staining (AID 1347148);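 note: compound exposure lasted three days at 37 degrees C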
Details: Cryptococcus neoformans chitosan, stronger effect = lower value; at 10 µM unless noted
Active and inactive are the calls of the source. The rule behind the calls is not given here.
observation_type: fold fluorescence

Consider the worked cases shown below.
[
  {
    "compound": "CNc1ccc2oc(C[C@H]3OC4(CC[C@H]3C)O[C@@H](C(C)C(=O)c3ccc[nH]3)[C@@H](C)C[C@@H]4C)nc2c1C(=O)O (some centres undefined)",
    "observation_type": "fold fluorescence",
    "readout_value": "5.79 [at 95.5 µM] (inactive)"
  },
  {
    "compound": "CCCCC/C=C\\C/C=C\\CCCCCCCC(=O)NCCO",
    "observation_type": "fold fluorescence",
    "readout_value": "4.78 (inactive)"
  },
  {
    "compound": "CCOC(=O)CN1C(=O)CC(C[C@@H](O)C2C[C@@H](C)C[C@H](C)C2=O)CC1=O (some centres undefined)",
    "observation_type": "fold fluorescence",
    "readout_value": "10.9 [at 136.1 µM] (inactive)"
  }
]

Then there is this compound:
Query: Value lookup for fold fluorescence; key = CC(C)[C@@H]1NC(=O)[C@H](C(C)C)OC(=O)[C@@H](C(C)C)NC(=O)[C@@H](C)OC(=O)[C@@H](C(C)C)NC(=O)[C@H](C(C)C)OC(=O)[C@@H](C(C)C)NC(=O)[C@@H](C)OC(=O)[C@H](C(C)C)NC(=O)[C@H](C(C)C)OC(=O)[C@H](C(C)C)NC(=O)[C@H](C)OC1=O
Result: 7.5 [at 45 µM] (inactive)
